Property: pKa; scope: individual compounds
Protocol: pKa of nanoparticle compositions
Format: physicochemical
Condition notes: Table 1c
Value kind: pKa

[[record]]
compound = "CCCCCCCCCCCCCCN(CCCCCCCCCCCC(=O)OC)CCC1CCCN(C(=O)CN(CCCCCCCCC)CCN(CCCCCCCCC)CCCCCCCCC)C1 (stereo not drawn)"
meas_value = 6.51

[[record]]
compound = "CCCCCCCCCCCCCCN(CCCCCCCCCCCC(=O)OC)CC(=O)N1CCN(C(=O)CN(CCCCCCCCC)CCN(CCCCCCCCC)CCCCCCCCC)CC1"
meas_value = 6.71

[[record]]
compound = "CCCCCCCCCN(CCCCCCCCC)CCN(CCCCCCCCC)CC(=O)N1CCN(C(=O)CN(CCCCCCCCC)CCCOC(=O)CC(C)CCC)CC1 (stereo not drawn)"
meas_value = 7.02

[[record]]
compound = "CCCCCCCCCCCCCCN(CCCOC(=O)CCCCCCCCC)CCC1CCN(C(=O)CN(CCCCCCCCC)CCN(CCCCCCCCC)CCCCCCCCC)CC1"
meas_value = 6.53

[[record]]
compound = "CCCCCCCCCCCCCCN(CCCCCCCC(=O)OCCCCC)CCC1CCCN(C(=O)CN(CCCCCCCCC)CCN(CCCCCCCCC)CCCCCCCCC)C1 (stereo not drawn)"
meas_value = 6.49

[[record]]
compound = "CCCCCCCCCCCCCCN(CCCCCCCCCCCC(=O)OC)CCC1CCN(C(=O)CN(CCCCCCCCC)CCN(CCCCCCCCC)CCCCCCCCC)C1 (stereo not drawn)"
meas_value = 6.81


* * *

Protocol: Particle size and polydispersity index of nanoparticle compositions (Zetasizer Nano ZS)
Assay type: physicochemical
Condition notes: Table 1c; nanoparticle compositions
Value kind: PDI

[[record]]
compound = "CCCCCCCCCCCCCCN(CCCCCCCC(=O)OCCCCC)CCC1CCN(C(=O)CN(CCCCCCCCC)CCN(CCCCCCCCC)CCCCCCCCC)CC1"
meas_value = 0.17

[[record]]
compound = "CCCCCCCCCN(CCCCCCCCC)CCN(CCCCCCCCC)CC(=O)N(C)CCN(C)C(=O)CN(CCCCCCCCC)CCCCCCCCC"
meas_value = 0.18

[[record]]
compound = "CCCCCCCCCN(CCCCCCCCC)CCOC(=O)C1CCC(C(=O)OCCN(CCCCCCCCC)CCN(CCCCCCCCC)CCCCCCCCC)CC1 (stereo not drawn)"
meas_value = 0.20

[[record]]
compound = "CCCCCC/C=C\\COC(=O)CCCN(CCCCCCCCCCCCCC)CC(=O)N1CCN(C(=O)CN(CCCCCCCCC)CCN(CCCCCCCCC)CCCCCCCCC)CC1"
meas_value = 0.20

[[record]]
compound = "CC/C=C\\COC(=O)CCCN(CCCCCCCCC)CC(=O)N1CCN(C(=O)CN(CCCCCCCCC)CCN(CCCCCCCCC)CCCCCCCCC)CC1"
meas_value = 0.19

[[record]]
compound = "CCCCCCCCCN(CCCCCCCCC)CCN(CCCCCCCCC)CC(=O)N1CCN(C(=O)CN(CCCCCCCCC)CCCOC(=O)CC(C)CCC)CC1 (stereo not drawn)"
meas_value = 0.17


* * *

Known % Dose Remaining (liver, 24 h) of a selection of molecules
Protocol: Lipid clearance: % dose remaining, Tables 7c and 8b-8e (species not given)
Type: in vivo
Condition notes: Table 8b
From the text: In contrast, hEPO expression in rats induced by administration of a nanoparticle composition including a compound according to one of formulae (I), (Ia1)-(Ia6), (Ib), (II), (IIa), (III), and (IIIa) was substantially […] than that measured for MC3. […] Tables 7c and 7d show additional protein expressions and clearance data from compositions with various compounds disclosed herein as compared to with MC3. Tables 7e, 7f and 7g show hEPO expression data in CD-1 mice at a dose of 0.5 mpk.
Value kind: % Dose Remaining (liver, 24 h) (%)

[[record]]
record_smiles = "CCCCC/C=C\\CCN(CC/C=C\\CCCCC)CCN(CC/C=C\\CCCCC)CC(=O)N(C)CCN(C)C(=O)CN(CCCCCCCCC)CCCCCCCCC"
meas_value = 78.44

[[record]]
record_smiles = "CCCCCCCCCN(CCCCCCCCC)CCN(CCCCCCCCC)CC(=O)N(C)CCCN(C)C(=O)CN(CCCCCCCCC)CCCCCCCCC"
meas_value = 78.61

[[record]]
record_smiles = "CCCCCCCCCN(CCCCCCCCC)CCN(CCCCCCCCC)CC(=O)N1CCN(C(=O)CN(CCCCCCCCC)CCCCCCCCC)CC1"
meas_value = 39.23

[[record]]
record_smiles = "CCCCCCCCCCN(CCCCCCCCCC)CCCC(=O)N1CCN(C(=O)CCCN(CCCCCCCCCC)CCCCCCCCCC)CC1"
meas_value = 81.04

